Test: Caspase-3/7 induction in CHO-K1 cells by small molecules, qHTS cell viability counter screen (AID 1346979); also: nearly all actives have a fitted effect of over 35% in size
Details: CellTiter-Fluor fluorescence, 17 h; series mostly up to 92.4 µM
Inconclusive results are not listed. The source made the active and inactive calls. Calls follow the shape of the dose curve; as a rule, active = well fitted cell-killing curve with a large enough effect in the repeat runs; inconclusive = weak or mixed curves, or effect the other way; inactive = no such curve, though single readings can be large or run the other way.
Assay Metric: outcome

• O=C1NC(=O)C(c2ccccc2)(c2ccccc2)N1 = inactive
• NC(=O)c1cccnc1 = inactive
• CC(=O)C(=O)O = inactive

----------
Assay: qHTS assay to identify small molecule antagonists of the estrogen related receptor signaling pathway with the pleiotropic PPARgamma coactivator (PGC) from Tox21 10K library - cell viability counter screen (AID 1224840); also: nearly all actives have a fitted effect of over 40% in size
Conditions: PGC/ERR reporter cells viability, CellTiter-Fluor, 17.5 h; series mostly up to 92.4 µM
Inconclusive results are not listed. Active and inactive are the calls of the source. Calls follow the shape of the dose curve; as a rule, active = well fitted cell-killing curve with a large enough effect in the repeat runs (not every such curve was filed as active); inconclusive = weak or mixed curves, or effect the other way; inactive = no such curve, though single readings can be large or run the other way.
Outcomes: active, inactive

• Nc1ccc([N+](=O)[O-])cc1O = active
• CC(=O)Nc1c(I)c(NC(C)=O)c(I)c(C(=O)O)c1I = inactive
• CC(C)NCC(O)c1ccc(O)c(O)c1 (stereo unspecified) = inactive
• Nc1c2c(nc3ccccc13)CCCC2 = inactive
• COc1ccc(CN(CCN(C)C)c2ccccn2)cc1 = inactive
• CCCCCCc1ccc(O)cc1O = inactive
• CNNCc1ccc(C(=O)NC(C)C)cc1 = inactive
• C=C(C)C(=O)OCC(C)O (stereo unspecified) = inactive
• Cc1cc(C)nc(NS(=O)(=O)c2ccc(N)cc2)n1 = inactive
• OC[C@H]1O[C@H](O[C@]2(CCl)O[C@H](CCl)[C@@H](O)[C@@H]2O)[C@H](O)[C@@H](O)[C@H]1Cl = inactive
• C1CCC(C(CC2CCCCN2)C2CCCCC2)CC1 (stereo unspecified) = active
• C=CCc1ccc(O)c(OC)c1 = inactive
• CC(=O)CCC(=O)O = inactive
• O=C(O)c1ccccc1 = inactive
• Cc1cc(=O)oc2cc(O)ccc12 = inactive
• O=C1NS(=O)(=O)c2ccccc21 = inactive
• NC(CO)(CO)CO = inactive
• CCN(CC)C(=O)c1cccc(C)c1 = inactive
• CCN(Cc1c(F)cccc1Cl)c1c([N+](=O)[O-])cc(C(F)(F)F)cc1[N+](=O)[O-] = inactive
• CC(=O)CC(c1ccccc1)c1c(O)c2ccccc2oc1=O (stereo unspecified) = inactive
• CN1CCC[C@H]1c1cccnc1 = inactive

The values you see were collected from PubChem BioAssay (Tox21).
